# maps each entry to its selectivity ratio
Experiment: Selectivity index, ratio of IC50 for human MRC5 cells to IC50 for Trypanosoma brucei brucei GUTat 3.1
Format: toxicity, cell-based
Details: read-out: Ratio IC50

compound: CC1=C2C[C@@H](O)C=C3C(=O)OC[C@]32C=CC2=C1[C@H](c1ccoc1)OC2=O
operator: =
selectivity ratio: 1.17
//
compound: CCC(=O)O[C@H]1C=C2C(=O)OC[C@]23C=CC2=C(C(C)=C3C1)[C@H](c1ccoc1)OC2=O
operator: =
selectivity ratio: 0.59
//
compound: CCNC(=O)O[C@H]1C=C2C(=O)OC[C@]23C=CC2=C(C(C)=C3C1)[C@H](c1ccoc1)OC2=O
operator: =
selectivity ratio: 0.9
//
compound: CCCC(=O)OC1=CC2=C(C)C3=C(C=C[C@]24COC(=O)[C@@H]4C1)C(=O)O[C@H]3c1ccoc1
operator: =
selectivity ratio: 5.54
//
compound: CC1=C2C[C@@H](OC(=O)Nc3ccccc3)C=C3C(=O)OC[C@]32C=CC2=C1[C@H](c1ccoc1)OC2=O
operator: =
selectivity ratio: 2.41
//
compound: CC(=O)OC1=CC2=C(C)C3=C(C=C[C@]24COC(=O)[C@@H]4C1)C(=O)O[C@H]3c1ccoc1
operator: =
selectivity ratio: 4.14
//
compound: Cc1ccc(C(=O)Nc2ccc(S(=O)(=O)O)c3cc(S(=O)(=O)O)cc(S(=O)(=O)O)c23)cc1NC(=O)c1cccc(NC(=O)Nc2cccc(C(=O)Nc3cc(C(=O)Nc4ccc(S(=O)(=O)O)c5cc(S(=O)(=O)O)cc(S(=O)(=O)O)c45)ccc3C)c2)c1 [SURAMIN]
operator: >
selectivity ratio: 63
//
compound: CCCNC(=O)O[C@@H]1CC2=C(C)C3=C(C=C[C@]24COC(=O)[C@@H]4C1)C(=O)O[C@H]3c1ccoc1
operator: =
selectivity ratio: 8.51
//
compound: N=C(N)c1ccc(OCCCCCOc2ccc(C(=N)N)cc2)cc1 [PENTAMIDINE]
operator: =
selectivity ratio: 3350
//
compound: CC1=C2C[C@@H](OC(=O)Nc3ccccc3)C[C@H]3C(=O)OC[C@@]23C=CC2=C1[C@H](c1ccoc1)OC2=O
operator: >
selectivity ratio: 9.5
//
compound: CC(=O)O[C@H]1C=C2C(=O)OC[C@]23C=CC2=C(C(C)=C3C1)[C@H](c1ccoc1)OC2=O
operator: =
selectivity ratio: 1.22
//
compound: CCCC(=O)O[C@H]1C=C2C(=O)OC[C@]23C=CC2=C(C(C)=C3C1)[C@H](c1ccoc1)OC2=O
operator: =
selectivity ratio: 1.01
//
compound: CCCC(=O)O[C@@H]1CC2=C(C)C3=C(C=C[C@]24COC(=O)[C@@H]4C1)C(=O)O[C@H]3c1ccoc1
operator: =
selectivity ratio: 1240
//
compound: NCCCC(N)(C(=O)O)C(F)F (stereo not given) [EFLORNITHINE]
operator: >
selectivity ratio: 44
//
compound: CCCCNC(=O)O[C@H]1C=C2C(=O)OC[C@]23C=CC2=C(C(C)=C3C1)[C@H](c1ccoc1)OC2=O
operator: =
selectivity ratio: 7.29
